tested on: NCI-H460; assay: Cytotoxicity against human NCI-H460 cells after 72 hrs by MTT assay; type: functional, cell-based; conditions: NCI-H460, 72 h
Recorded IC50, one value per entry.
Report the figure in nM without appending any unit label.

Prompt: Which IC50 value belongs to C/C=C(/C)C(=O)OC[C@H]1c2c(O)c(OC)c(C)c(OC(=O)OC)c2C[C@H]2[C@H]3C4=C(C[C@H]([C@H](C#N)N12)N3C)C(=O)C(C)=C(OC)C4=O ?
Completion: 14

Prompt: Now the same for COc1cccc2c1C(=O)c1c(O)c3c(c(O)c1C2=O)C[C@@](O)(C(=O)CO)C[C@@H]3O[C@H]1C[C@H](N)[C@H](O)[C@H](C)O1 [DOXORUBICIN]
Completion: 34

Prompt: Now the same for C/C=C(/C)C(=O)OC[C@H]1c2c(O)c(OC)c(C)c(OC(C)=O)c2C[C@H]2[C@H]3C4=C(C[C@H]([C@H](C#N)N12)N3C)C(=O)C(C)=C(OC)C4=O
Completion: 3.6
